Items are presented alongside their recorded Activity against human GIPR (EC50 nM).
Target: T1, human glucose-dependent insulinotropic polypeptide receptor (human, UniProt P48546 22-466)
T1 sequence (looked up): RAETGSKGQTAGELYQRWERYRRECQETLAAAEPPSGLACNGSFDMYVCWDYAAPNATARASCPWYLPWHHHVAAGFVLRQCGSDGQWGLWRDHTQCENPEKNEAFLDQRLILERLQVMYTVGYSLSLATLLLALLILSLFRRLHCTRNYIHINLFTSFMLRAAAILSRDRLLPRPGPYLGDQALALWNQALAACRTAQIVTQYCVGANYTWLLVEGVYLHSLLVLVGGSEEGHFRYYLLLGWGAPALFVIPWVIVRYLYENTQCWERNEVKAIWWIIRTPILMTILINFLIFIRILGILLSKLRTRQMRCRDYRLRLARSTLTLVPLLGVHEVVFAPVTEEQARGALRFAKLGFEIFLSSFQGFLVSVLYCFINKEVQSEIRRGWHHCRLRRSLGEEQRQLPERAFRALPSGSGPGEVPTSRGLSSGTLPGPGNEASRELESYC
Test: cell-based or functional assay
Starred links: 1 amine or outer side, 2 acyl side, 3 side chain; linkers in the order of their positions; H or OH if unused. Non-standard residues stand in square brackets, D forms with d. Groups on a side chain read outwards from the residue. No end group written: not given here. *: point of attachment. C20 diacid = O=C(O)CCCCCCCCCCCCCCCCCCC(=O)*; γGlu = O=C(O)[C@H](CCC(=O)[*:2])N[*:1]; αMeK = C[C@](N)(CCCCN)C(=O)O; Iva = CC[C@](C)(N)C(=O)O; AEEA = NCCOCCOCC(=O)O; Aib = CC(C)(N)C(=O)O
Please append the unit to your numeric answer.

H[Aib]HGTFTSDYS[αMeK]LLEK([AEEA-AEEA-γGlu-C20 diacid])QAA[Iva]EFVEWLLAGGPSSGAPPPS-NH2 [Compound No. 0128] :: 0.0005 nM
Y[Aib]QGTFTSDYS[αMeK]ILEK([AEEA-AEEA-γGlu-C20 diacid])KAA[Iva]EFVEWLLAGGPSSGAPPPS-NH2 [Compound No. 0129] :: 0.002 nM
Y[Aib]QGTFTSDYS[αMeK]LLEK([AEEA-AEEA-γGlu-C20 diacid])KAA[Iva]EFVEWLLAGGPSSGAPPPS-NH2 [Compound No. 0127] :: 0.0007 nM

# input for lookup
Entry H[Aib]HGTFTSDYS[αMeK]ILEK([AEEA-AEEA-γGlu-C20 diacid])QAA[Iva]EFVEWLLAGGPSSGAPPPS-NH2 [Compound No. 0130] : reported Activity against human GIPR (EC50 nM) = ?
0.0005 nM
